pIC50: −log10 of the molar value.
Literature survey of pIC50 (system: Oxysterols receptor LXR-beta (Homo sapiens, UniProt P55055)).
Sequence (P55055 whole entry): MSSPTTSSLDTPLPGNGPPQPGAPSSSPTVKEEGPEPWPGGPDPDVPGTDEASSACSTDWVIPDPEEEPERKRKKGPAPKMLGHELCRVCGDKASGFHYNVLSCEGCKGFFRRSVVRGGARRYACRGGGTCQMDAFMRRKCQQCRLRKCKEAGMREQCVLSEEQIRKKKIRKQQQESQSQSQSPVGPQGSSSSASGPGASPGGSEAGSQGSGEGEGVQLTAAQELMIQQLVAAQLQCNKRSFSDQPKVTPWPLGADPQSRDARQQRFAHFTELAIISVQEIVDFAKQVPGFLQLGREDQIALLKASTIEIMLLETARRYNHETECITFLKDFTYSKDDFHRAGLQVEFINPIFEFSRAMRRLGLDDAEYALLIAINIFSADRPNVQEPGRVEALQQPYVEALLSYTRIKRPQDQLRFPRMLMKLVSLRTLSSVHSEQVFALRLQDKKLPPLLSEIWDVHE
Endpoint: pIC50

a. CCCc1c(OCCCN(C)c2ncc(CC(=O)O)cn2)ccc2c(C(F)(F)F)noc12
b. Cc1cnc2c(Cl)cccc2c1-c1cccc(Oc2cccc(C(=O)N3CCOCC3)c2)c1
c. CCCc1c(OCCCN(CC)c2ccc(CC(=O)O)cc2)ccc2c(C(F)(F)F)noc12
d. CCCc1c(OCCCN(C)c2ccc(CC(=O)O)cn2)ccc2c(C(F)(F)F)noc12
e. Fc1ccc(-c2c3cccc(C(F)(F)F)c3nn2Cc2ccccc2F)cc1
Lookup: Please order the records by their reported pIC50, lowest number first. Please list the labels according to the requested order.
Found: d, c, a, e, b
(d: 6.20, c: 6.85, a: 7.26, e: 7.48, b: 8.15)

---

pIC50: −log10 of the molar value.
The following compounds were reported with pIC50 values on UniProt:P55055 in different studies.
Endpoint: pIC50

Some compounds with known pIC50 results, for comparison:
Lookup: // fetch pIC50; item: O=C(O)Cc1cccc(OCCCN(Cc2cccc(C(F)(F)F)c2Cl)CC(c2ccccc2)c2ccccc2)c1 ; system: UniProt:P55055
Found: 7.92

Lookup: Fill: pIC50 (UniProt:P55055) for this compound Fc1ccc(-c2c3cccc(C(F)(F)F)c3nn2Cc2ccc(F)cc2Cl)cc1
Found: 7.62

A. CCCc1c(OCCCN(C)c2ccccc2)ccc2c(C(F)(F)F)noc12
B. Cc1cccc2c(-c3cccc(NCc4ccc(CC(=O)O)cc4)c3)c(Cc3ccccc3)cnc12
Lookup: Consider A and B . Which of these has its pIC50 at a higher number? // respond with label for picked entry
Found: B
(B: 8.30, A: 6.37)
